Parameter: melting point. Scope: all listed entries.
assay endpoint: melting point

[[record]]
molecule = "COc1cc(Oc2ccc(S(C)(=O)=O)cn2)cc2cc(C3=NCC(CC(C)(C)O)S3)[nH]c12 (stereo unspecified)"
measured = "171 to 173 °C"

[[record]]
molecule = "Nc1ccc(CO)cc1[N+](=O)[O-]"
measured = "100 to 101 °C"

[[record]]
molecule = "c1ccc2c(c1)Oc1ccccc1C2NCCn1ccnc1"
measured = "90 to 92 °C"

[[record]]
molecule = "Cc1cccc(CSc2nc3cnccc3[nH]2)c1"
measured = "166 to 168 °C"

[[record]]
molecule = "CN1C(=O)N(C[C@@H](CCS(=O)(=O)c2ccc(Oc3ccc(F)cc3)cc2)N(O)C=O)C(=O)C1(C)C"
measured = "105 °C"

[[record]]
molecule = "CCN(CC)C(=O)OCC1CN(C(=O)c2cc(OC)c(OC)c(OC)c2)CCN1C(=O)c1cc(OC)c(OC)c(OC)c1 (stereo unspecified)"
measured = "95.1 °C"

[[record]]
molecule = "CCOC(=O)c1c(C)cc2ncn(-c3ccccc3)c(=O)c2c1C"
measured = "102 to 103 °C"

[[record]]
molecule = "CCC(=O)NCCC1c2cc(OC)ccc2-c2ccc(OC)cc21"
measured = "139 to 140 °C"

[[record]]
molecule = "Cc1nn(-c2nnc(S)n2N)c2c1CCCC2"
measured = "201 to 202 °C"

[[record]]
molecule = "CC(=O)OC1CCC2(C)C(=CCC3C4=CCC(C(C)=O)C4(C)CCC32)C1 (stereo unspecified)"
measured = "205 to 208 °C"

[[record]]
molecule = "CSc1ccc(N(C)S(=O)(=O)c2ccc(C)cc2)c(C#N)c1"
measured = "139 to 140 °C"

[[record]]
molecule = "C=CCN1CCN(C2=NC3(C=CC(=O)C=C3)C(c3ccccc3)=C2)CC1"
measured = "171 °C"

[[record]]
molecule = "O=C1NN(C(=O)Oc2ccc(Cl)cc2)C(c2ccccc2)C1c1ccccc1 (stereo unspecified)"
measured = "175 to 177 °C"

[[record]]
molecule = "COc1ccc(Br)c(CC(C#N)C(=O)O)c1OC (stereo unspecified)"
measured = "120 to 122 °C"

[[record]]
molecule = "FC(F)Sc1nnc(-c2cccs2)s1"
measured = "63 to 64 °C"

[[record]]
molecule = "CN1CCC(O)c2cccc(CSc3nc4ccccc4[nH]3)c21 (stereo unspecified)"
measured = "144 to 145 °C"

[[record]]
molecule = "c1ccc2c(c1)c(-c1nnn[nH]1)cc1nnnn12"
measured = "250 to 251 °C"

[[record]]
molecule = "NC(=O)C(=O)Nc1nc(-c2cc3ccccc3oc2=O)cs1"
measured = "297 to 300 °C"

[[record]]
molecule = "COC(=O)c1cc(Br)cc(Cl)c1NC(C)=O"
measured = "152 to 153 °C"

[[record]]
molecule = "O=C(NCCc1ccc(CN2CCCC2)cc1)N1CCC(c2ccc(Cl)cc2)CC1"
measured = "116 to 117 °C"

[[record]]
molecule = "C#C[C@]1(C)CCc2c(C)c(OCc3ccccc3)c(C)c(C)c2O1"
measured = "88 to 90 °C"


---

assay endpoint: melting point

[[record]]
compound = "CCOC(=O)C1=C(COCc2nnnn2CCNc2nc(N)n[nH]2)NC(C)=C(C(=O)OC)C1c1cccc(Cl)c1Cl (centres undefined)"
assay_endpoint = "melting point"
measured = "70 °C"

[[record]]
compound = "CC1Cc2c(occ(C=O)c2=O)-c2ccccc21 (centres undefined)"
assay_endpoint = "melting point"
measured = "146 to 148 °C"

[[record]]
compound = "Cc1cc2nc(-c3cccnc3N)n(-c3ccc(CC(=O)Nc4ccc5ncccc5c4)cc3)c2nc1-c1cccnc1"
assay_endpoint = "melting point"
measured = "176 to 178 °C"

[[record]]
compound = "Fc1cc(-c2cc(C(F)(F)F)n3ncc(-c4ccncc4)c3n2)ccc1C(F)(F)F"
assay_endpoint = "melting point"
measured = "262 °C"

[[record]]
compound = "CCCCCS(=O)(=O)c1cccc(-c2nc(=O)c3ccccc3s2)n1"
assay_endpoint = "melting point"
measured = "160 to 161 °C"

[[record]]
compound = "NCC(O)COc1cccc(CN2CCCCC2)c1 (centres undefined)"
assay_endpoint = "melting point"
measured = "74 to 76.5 °C"

[[record]]
compound = "CC(C(=O)O)c1ccc(C(=O)c2ccc(Br)o2)cc1 (centres undefined)"
assay_endpoint = "melting point"
measured = "108 to 110 °C"

[[record]]
compound = "CC(SC1COC(c2ccc(C(=O)Nc3ccc(Cl)cc3)cc2)OC1)C(O)(Cn1cncn1)c1ccc(F)cc1F (centres undefined)"
assay_endpoint = "melting point"
measured = "210 °C"

[[record]]
compound = "Cc1nc(-c2cnn(-c3c(Cl)cc(C(F)(F)F)cc3Cl)n2)[nH]c1[N+](=O)[O-]"
assay_endpoint = "melting point"
measured = "231 to 232 °C"


---

Parameter: melting point. Scope: all listed entries.
assay endpoint: melting point

[[record]]
molecule = "O=C(NCCNCc1ccccc1)c1ccc(Cl)cn1"
measured = "45 to 46 °C"

[[record]]
molecule = "Cc1c(Cc2cccc(C(F)(F)F)c2)sc2c(-c3cc(F)cc(C(=O)NCC(N)=O)c3)cccc12"
measured = "46 to 47 °C"

[[record]]
molecule = "CS(=O)(=O)c1ccc(-c2ccccc2CO)cc1"
measured = "123 to 124 °C"

[[record]]
molecule = "COCc1ccc([C@H]2CC[C@H]([C@H]3CC[C@H](C=O)CC3)CC2)cc1F"
measured = "52 to 54 °C"

[[record]]
molecule = "CCS(=O)(=O)c1ccc(SC2SCC(O)C(O)C2O)cc1 (stereo not given)"
measured = "130 to 135 °C"

[[record]]
molecule = "CC(=O)Nc1ccc(N2CCN(c3ccc(OCC(O)(Cn4cncn4)c4ccc(Cl)cc4Cl)cc3)CC2)cc1 (stereo not given)"
measured = "169 to 171 °C"

[[record]]
molecule = "CCCc1[nH]c2cc(C(=O)OC)ccc2c1C(=O)C1CCC1"
measured = "159 to 160 °C"

[[record]]
molecule = "O=C(O)c1c2nc3cc(Cl)c(Br)cc3c-2[nH]c2ccccc12"
measured = "> 243 °C"

[[record]]
molecule = "Clc1ccc(C2C=Cc3cc(Br)cnc3O2)cc1Cl (stereo not given)"
measured = "100 to 101 °C"

[[record]]
molecule = "CCOC(=O)C(C#N)C1(C#N)C(=O)N(Cc2ccc(Br)cc2F)c2c(C)cccc21 (stereo not given)"
measured = "130 to 132 °C"


---

assay endpoint: melting point

[[record]]
compound = "FC(F)(F)c1ccc(-c2ccc(Cl)nc2)cc1"
assay_endpoint = "melting point"
measured = "98 to 101 °C"

[[record]]
compound = "O=C(Nc1ccccc1)OCC#Cc1cc(F)c2ncc(C(=O)NCc3ccc(Cl)cc3)c(O)c2c1"
assay_endpoint = "melting point"
measured = "227 to 229 °C"

[[record]]
compound = "CC(c1ccccc1)N(C=O)CC#N (single isomer, unassigned; (+))"
assay_endpoint = "melting point"
measured = "78.9 °C"

[[record]]
compound = "O=C(NC12CC3CC(CC(C3)C1)C2)c1cc(O)c(O)cc1[N+](=O)[O-]"
assay_endpoint = "melting point"
measured = "250 to 255 °C"

[[record]]
compound = "Cc1nc(N2CCN(Cc3ccccc3)C2=O)sc1C(=O)NCc1ccc(F)cc1"
assay_endpoint = "melting point"
measured = "147 to 148 °C"

[[record]]
compound = "O=S1(=O)CCN(CC#Cc2cnc3c(c2)N(Cc2cc(Cl)ccc2Cl)CCN3)CC1"
assay_endpoint = "melting point"
measured = "> 200 °C"

[[record]]
compound = "CC(C)CC(CO)NC(=O)c1ccccc1SSc1ccccc1C(=O)NC(CO)CC(C)C (centres undefined)"
assay_endpoint = "melting point"
measured = "195 to 196 °C"

[[record]]
compound = "CCOCc1nc2cnc3cc(Br)ccc3c2n1C[C@@H]1COC(C)(C)O1"
assay_endpoint = "melting point"
measured = "90 to 91 °C"

[[record]]
compound = "C=CCNc1nc(NCCCCC)c2scc(C)c2n1"
assay_endpoint = "melting point"
measured = "64 to 65 °C"


---

assay endpoint: melting point

[[record]]
record_smiles = "O=c1[nH]cc(C(c2ccccc2)c2ccccc2)cc1C(c1ccccc1)c1ccccc1"
assay_endpoint = "melting point"
measured = "240 °C"

[[record]]
record_smiles = "N#Cc1nn(-c2c(Cl)cc(C(F)(F)F)cc2Cl)c(N)c1-c1ccc(Cl)cc1"
assay_endpoint = "melting point"
measured = "235 to 237 °C"

[[record]]
record_smiles = "CCC(=O)Nc1nnc2c3c(c(N4CCCCC4)nn12)CCCC3"
assay_endpoint = "melting point"
measured = "173 to 174 °C"

[[record]]
record_smiles = "COC(=O)CCc1oc(-n2ccnc2SC)nc1-c1ccc(Cl)cc1"
assay_endpoint = "melting point"
measured = "88 to 89 °C"

[[record]]
record_smiles = "Cn1cc(CC(=O)O)c(OCc2cc(OCc3ccc4ccccc4n3)no2)n1"
assay_endpoint = "melting point"
measured = "124 to 125 °C"

